Experiment: chemical genetic growth profiling, strain panel (AID 1159580);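 further: tested at 20 µM; growth read once vehicle control cultures reached saturation at 30 °C; 1 = growth at the plate median or of vehicle wells; lower values mean less growth of the strain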
Details: S. cerevisiae deletion strains, growth OD, locus YMR125W, strain sto1, active compounds read low
The campaign covered roughly 5,500 compounds. About 2,000 (36%) were called active. Roughly 18% stayed inconclusive and do not appear here. The list shows a part of the results.
measure_name: normalized growth
Keep the answer to the number alone.

Answered examples (5):
O=c1cc(-c2ccc(O)c(O)c2)oc2ccccc12 = 0.991
CNCCC=C1c2ccccc2CCc2ccccc21 = 0.933
CC(=O)Nc1ccc(OC(=O)c2ccccc2O)cc1 = 0.982
COc1cccc(-c2cc(=O)c3ccc(OC)cc3o2)c1 = 0.941
O=C(O)c1cc(=O)c2ccccc2o1 = 0.95

// below: normalized growth requested for another compound
**Query** Supply measured normalized growth of NC(=O)CC[C@@H](N)C(=O)O in your reply.
**Result** 1.03

###

Test: chemical genetic growth profiling, strain panel (AID 1159580);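 further: tested at 20 µM; growth read once vehicle control cultures reached saturation at 30 °C; 1 = growth at the plate median or of vehicle wells; lower values mean less growth of the strain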
Conditions: S. cerevisiae deletion strains, growth OD, locus YML124C, strain tub3
The campaign covered roughly 5,500 compounds. About 2,000 (36%) were called active. Another 18% or so got no clear call; they are omitted. No stated cut-off is given here; in the data, active means normalized growth mostly below about 0.91 (no sharp cut-off); inconclusive means no clear call, values can overlap the other calls; inactive means mostly above about 0.92. The list shows a part of the results.
Outcomes you can answer with include only these: True = active, False = inactive

O=C1c2c(O)ccc(O)c2C(=O)c2c(NCCNCCO)ccc(NCCNCCO)c21 = False
CC(=O)O.CC(=O)O.[Cd] = True
COc1cccc(-c2cc(=O)c3ccc(OC)cc3o2)c1 = True
CC(C)Oc1ccc2c(=O)cc(-c3ccccc3)oc2c1 = True
COc1ccc(-c2cc(=O)c3c(OC)cccc3o2)cc1 = False

**Query** // param item: CC1=C2C(=CO[C@H](C)[C@H]2C)C(=O)C(C(=O)O)=C1O ; yields the recorded call
**Result** False

**Query** // param item: O=c1c2ccccc2[se]n1-c1ccccc1 ; yields the recorded call
**Result** True

**Query** // param item: CSc1ccc2c(c1)C(N1CCN(C)CC1)Cc1ccccc1S2 (stereo unspecified) ; yields the recorded call
**Result** False

**Query** // param item: COc1ccc2c(=O)cc(-c3ccccc3OC)oc2c1 ; yields the recorded call
**Result** False

**Query** // param item: COc1cc([C@@H]2c3cc4c(cc3C(O[C@@H]3O[C@@H]5CO[C@@H](c6cccs6)OC5[C@H](O)[C@H]3O)C3COC(=O)[C@@H]32)OCO4)cc(OC)c1O (stereo partly specified) ; yields the recorded call
**Result** False

**Query** // param item: COc1ccc(-c2cc(=O)c3ccccc3o2)cc1OC ; yields the recorded call
**Result** False

###

Assay: chemical genetic growth profiling, strain panel (AID 1159580);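 further: tested at 20 µM; growth read once vehicle control cultures reached saturation at 30 °C; 1 = growth at the plate median or of vehicle wells; lower values mean less growth of the strain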
Conditions: S. cerevisiae deletion strains, growth OD, locus YBR009C, strain hhf1
Screen size: about 5,500 compounds; about 2,000 (36%) were called active. Roughly 18% stayed inconclusive and do not appear here. Cut-off read from the data, not from the text of the source: active = normalized growth mostly below about 0.91 (no sharp cut-off); inconclusive = no clear call, values can overlap the other calls; inactive = mostly above about 0.92. The list shows a part of the results.
Outcomes you can answer with include only these: y (active), n (inactive)

The examples below pair each entry with its known result.
COc1ccc(-c2cc(=O)c3c(OC(C)=O)cc(OC(C)=O)cc3o2)cc1 = n
O=c1cc(-c2cccc(O)c2)oc2ccc(O)cc12 = n
N[C@@H]1CONC1=O = n
NS(=O)(=O)c1cc2c(cc1C(F)(F)F)NCNS2(=O)=O = n
CC(=O)Oc1c(-c2ccccc2)oc2c(CC=C(C)C)c3c(c(OC(C)=O)c2c1=O)C=CC(C)(C)O3 = n
CC1(C)O[C@@H]2CC3C4CCC5=CC(=O)C=C[C@]5(C)[C@@]4(F)[C@@H](O)C[C@]3(C)[C@]2(C(=O)CO)O1 (some centres not stated) = n

**Query** // param item: CC(C)Oc1ccc2c(=O)cc(-c3ccccc3)oc2c1 ; yields the recorded call
**Result** n

**Query** // param item: O=C(/C=C/c1ccccc1)c1ccc(O)cc1 ; yields the recorded call
**Result** y

**Query** // param item: CC(C)=CCc1c2c(c(O)c3c(=O)c(O)c(-c4ccccc4)oc13)C=CC(C)(C)O2 ; yields the recorded call
**Result** n

**Query** // param item: COc1cc2c(cc1OC)-c1cc3ccc(OC)c(OC)c3c[n+]1CC2 ; yields the recorded call
**Result** n

**Query** // param item: O=c1c2ccccc2oc2ccccc12 ; yields the recorded call
**Result** y

**Query** // param item: O=c1c2ccccc2[se]n1-c1ccccc1 ; yields the recorded call
**Result** y
